- STUDY SYSTEM: T1, cyno CD39 on the cell surface (293T/17-cyno CD39 cells) (cyno, UniProt P49961 7-510 (human entry))
- T1 chain: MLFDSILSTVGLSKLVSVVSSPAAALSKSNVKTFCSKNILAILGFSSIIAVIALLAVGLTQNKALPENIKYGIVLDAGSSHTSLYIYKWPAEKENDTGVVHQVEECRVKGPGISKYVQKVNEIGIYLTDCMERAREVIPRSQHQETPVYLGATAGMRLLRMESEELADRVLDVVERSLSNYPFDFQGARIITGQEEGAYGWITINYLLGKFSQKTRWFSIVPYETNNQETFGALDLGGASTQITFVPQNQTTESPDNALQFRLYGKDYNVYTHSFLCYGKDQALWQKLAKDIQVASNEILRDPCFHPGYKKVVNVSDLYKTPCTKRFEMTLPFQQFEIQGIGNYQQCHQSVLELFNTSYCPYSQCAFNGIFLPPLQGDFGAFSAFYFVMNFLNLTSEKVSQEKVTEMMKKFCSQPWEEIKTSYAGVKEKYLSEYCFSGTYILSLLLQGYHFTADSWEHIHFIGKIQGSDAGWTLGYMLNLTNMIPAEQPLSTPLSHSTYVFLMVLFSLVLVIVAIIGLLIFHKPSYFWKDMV
- METHOD: cell-based or functional assay
MEASUREMENT TYPE: Blocking of ATPase activity on cell surface (293T/17-cyno CD39, CellTiter Glo): Bottom

>>> quantitative_readout("219 hIgG2 (antibody, V domains shown, Chimeric antibody: mouse Fv fused to the human IgG2 constant region; also called chimeric antibody 219) VH: EVQLVESGGGLVKPGGSLKLSCAASGFTFSDYGMHWVRQAPEKGLEWVAYISSGSSIRYYADTVKGRFTISRDNAKNTLFLQMTSLRSEDTAIYYCARDLYYDHVLDYWGQGTTLTVSS VL: DIQMTQSPSSLSASLGERVSLTCRASQEVSGYLNWLQQKPDGTIKRLIYAASTLDSGVPKRFSGSRSGSDYSLTISSLESEDFADYYCLQYASYPRTFGGGTKVEIKR")
44500
